Data credit: patent EP4703388A1

Can you tell me koff for the items I'm about to list?
# TARGET: T1, cyno TF ECD-His (cTF-his) (monkey (cyno))
# T1 construct: also called bio-cTF-his; monkey TF-His protein
# T1 chain: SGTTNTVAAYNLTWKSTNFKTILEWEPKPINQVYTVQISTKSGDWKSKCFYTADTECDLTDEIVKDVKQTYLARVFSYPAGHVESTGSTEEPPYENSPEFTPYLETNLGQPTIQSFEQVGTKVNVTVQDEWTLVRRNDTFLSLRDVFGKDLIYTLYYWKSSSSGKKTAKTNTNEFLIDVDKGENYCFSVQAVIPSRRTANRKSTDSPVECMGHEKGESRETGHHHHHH
# TEST_PROTOCOL: SPR Biacore T200, antibody on Protein A chip, TF-His as analyte, 1:1 model
Answers are plain numbers, in s⁻¹.

- BINDER: "hu67-9 (antibody, human IgG1, kappa, V domains shown) VH: EVTLKQSGPVLVKPTQTLTLTCTVSGFSLTNYGVNWIRQPPRKALEWLAVIWSRGNTDYNAAFISRLTISKDTSKSQVVLKMTNMDPVDTATYYCARKDAVVATDALDYWGQGTTVTVSS VL: DIQMTQSPSSLSASVGDRVTITCKASQDVSTAVAWYQQKPGKAPKLLIYSTSYRYTGVPSRFSGSGSGTDFTFTISSLQPEDIATYYCQQHYSTPYTFGGGTKVEIKR"
  SCALE_UNIT: "s⁻¹"
  koff: 0.000351
- BINDER: "hu10H10-77 (antibody, V domains shown, H11+L9; Full-length IgG) VH: EVQLVQSGSELKKPGASVKVSCKASGYTFITYWIEWVKQRPGQGLEWMGDILPYSGSTNYNENFKGRATFSADTSVSTAYLQISSLKAEDTAVYYCARSGYYGNSGFAYWGQGTLVTVSS VL: DIQMTQSPSSLSASVGDRVTITCQSSQSLLSSGNQKNYLTWYQQKPGKAPKLLIYWASTRESGVPSRFSGSGSGTDFTLTISSLQPEDFATYYCQNDYTYPLTFGQGTKLEIK"
  SCALE_UNIT: "s⁻¹"
  koff: 0.000114

Lab note: each binder below needs its koff filled in.
1. hu310-2 (antibody, human IgG1, kappa, V domains shown) VH: EVQLVQSGAEVKKPGASVKVSCKASGYSFTGYYMNWVRQAPGQGLEWMGEINPSTGGSTYNQKFKARVTMTVDQSTSTVYMELSSLRSEDTAVYYCARRELGGPFGYWGQGTTVTVSS VL: SIVMTQSPDSLAVSLGERATINCKASQSVSNGIAWYQQKPGQSPKLLIYFASNRYTGVPDRFSGSGYGTDFTLTISSLQAEDVAVYYCQQDYSSPWTFGGGTKVEIKR
2. hu67-2 (antibody, human IgG1, kappa, V domains shown) VH: EVTLKQSGPVLVKPTQTLTLTCTVSGFSLTNYGVNWIRQPPRKGLEWLGVIWSRGNTDYNAAFISRLTISKDNSKSQVVLKMTNMDPVDTATYYCARKDAVVATDALDYWGQGTTVTVSS VL: DIVMTQSPKSLAVSLGERATINCKASQDVSTAVAWYQQKPGQPPKLLIYSTSYRYTGVPDRFSGSGSGTDFTLTISSLQAEDVAVYYCQQHYSTPYTFGGGTKVEIKR

1. 0.00637
2. 0.000429
